- test_system: rat PXR (Rattus norvegicus, UniProt Q9R1A7)
- Sequence (Q9R1A7 whole entry): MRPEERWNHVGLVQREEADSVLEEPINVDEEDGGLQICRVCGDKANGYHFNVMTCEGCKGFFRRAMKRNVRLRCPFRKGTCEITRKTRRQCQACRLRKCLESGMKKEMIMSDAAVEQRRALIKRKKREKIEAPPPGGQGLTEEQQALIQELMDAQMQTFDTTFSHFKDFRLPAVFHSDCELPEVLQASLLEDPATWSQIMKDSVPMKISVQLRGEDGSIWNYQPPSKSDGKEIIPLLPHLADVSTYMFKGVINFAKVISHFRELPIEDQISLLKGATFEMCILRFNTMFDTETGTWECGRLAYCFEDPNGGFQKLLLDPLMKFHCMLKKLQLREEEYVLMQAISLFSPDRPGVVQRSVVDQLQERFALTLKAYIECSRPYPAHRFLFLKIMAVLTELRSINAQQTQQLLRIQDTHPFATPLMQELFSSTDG
- Assay type: cell-based
- condition_description: microsomes of PB- and MC-treated rats, NADPH, vs boiled microsomes
metric_name: Change of PXR activity upon incubation with rat liver microsomes

molecule: CC1(C)[C@H](C(=O)OCc2cccc(Oc3ccccc3)c2)[C@@H]1C=C(Cl)Cl [cis-permethrin]
recorded_result: decreased

molecule: CC(C)=C[C@@H]1[C@@H](C(=O)OCc2coc(Cc3ccccc3)c2)C1(C)C
recorded_result: slightly decreased

molecule: CC1(C)[C@H](C(=O)O[C@H](C#N)c2cccc(Oc3ccccc3)c2)[C@@H]1C=C(Br)Br
recorded_result: decreased

molecule: C=CCC1=C(C)C(OC(=O)C2C(C=C(C)C)C2(C)C)CC1=O (centres unmarked)
recorded_result: slightly decreased

molecule: CC1(C)[C@H](C=C(Cl)Cl)[C@H]1C(=O)OCc1cccc(Oc2ccccc2)c1 [trans-permethrin]
recorded_result: decreased
